Known IC50 of a selection of compounds
# System: PSA secretion
# ASSAY TEXT: relative PSA level / PSA secretion assay, cell line not named
# Type: cell-based

Prompt line: # value lookup — system PSA secretion, readout IC50, item N#Cc1ccc(N2C(=O)C3(CCC3)N(c3ccc(/C=C/CO)cc3)C2=S)cc1C(F)(F)F [compound 78]
Response line: 100 to 150 nM

New cases:
Prompt line: # value lookup — system PSA secretion, readout IC50, item N#Cc1ccc(N2C(=O)C3(CCC3)N(c3ccc(C=O)cc3)C2=S)cc1C(F)(F)F [compound 75]
Response line: 200 to 300 nM

Prompt line: # value lookup — system PSA secretion, readout IC50, item CC(O)c1ccc(N2C(=S)N(c3ccc(C#N)c(C(F)(F)F)c3)C(=O)C23CCC3)cc1 (stereo not shown) [compound 76]
Response line: 200 to 300 nM

Prompt line: # value lookup — system PSA secretion, readout IC50, item N#Cc1ccc(N2C(=O)C3(CCC3)N(c3ccc(/C=C/C(N)=O)cc3)C2=S)cc1C(F)(F)F [compound 77]
Response line: 100 to 150 nM

====

# Test system: LNCaP/AR cells
# ASSAY TEXT: PSA expression readout in LNCaP/AR
# Format: cell-based
# CONDITION CONTEXT: hormone-refractory LNCaP/AR, Scheme 21
QUANTITY KIND: activity

Prompt line: # value lookup — system LNCaP/AR cells, readout activity, item CNC(=O)c1ccc(N2C(=S)N(c3ccc(C#N)c(C(F)(F)F)c3)C(=O)C23CCCC3)cc1F [compound 93]
Response line: very active

Prompt line: # value lookup — system LNCaP/AR cells, readout activity, item CNC(=O)c1ccc(N2C(=S)N(c3ccc(C#N)c(C(F)(F)F)c3)C(=O)C2(C)C)cc1F [compound 92]
Response line: very active
